The reported numbers originate from patent US11691949B2.

Please provide measured log10 of MIC for the entries that follow.
# Test system: S. aureus ATCC 6538
# ASSAY_REMARKS: MIC by broth microdilution, S. aureus
# Type: cell-based
# CONDITION_SET: Staphylococcus aureus, ATCC6538, read-out: S. aureus ATCC 6538 MIC, No Zinc
Where a name gives a salt, the structure may show the parent alone.
Heads up, the numbers here are log10 of MIC in µg/mL units.

Asked: // query log10 of MIC value for entry CN(C)CCCNC(=O)CNCc1ccc2cccc(NS(=O)(=O)c3ccc(C(F)(F)F)cc3)c2n1 [ZDR261, di-trifluoroacetate]
Given back: 1.51

Asked: // query log10 of MIC value for entry O=C(CNCc1ccc2cccc(NS(=O)(=O)c3ccc(C(F)(F)F)cc3)c2n1)NCCCN1CCCCC1 [ZDR262, di-trifluoroacetate]
Given back: 1.81

Asked: // query log10 of MIC value for entry NC(=O)CNCc1ccc2cccc(NS(=O)(=O)c3ccc(C(F)(F)F)cc3)c2n1 [ZDR266, trifluoroacetate]
Given back: 1.81

Asked: // query log10 of MIC value for entry CN1CCN(CCNCc2ccc3cccc(NS(=O)(=O)c4ccc(C(F)(F)F)cc4)c3n2)CC1 [ZDR114, di-trifluoroacetate]
Given back: 1.81

Asked: // query log10 of MIC value for entry CNC(=O)CNCc1ccc2cccc(NS(=O)(=O)c3ccc(C(F)(F)F)cc3)c2n1 [ZDR270, trifluoroacetate]
Given back: 1.51

Asked: // query log10 of MIC value for entry N=C(N)NCc1ccc2cccc(NS(=O)(=O)c3ccc(C(F)(F)F)cc3)c2n1 [ZDR187, trifluoroacetate]
Given back: 0.90

Asked: // query log10 of MIC value for entry CN(C)CCNC(=O)CNCc1ccc2cccc(NS(=O)(=O)c3ccc(C(F)(F)F)cc3)c2n1 [ZDR268, di-trifluoroacetate]
Given back: 1.81

Asked: // query log10 of MIC value for entry N=C(N)NCCNCc1ccc2cccc(NS(=O)(=O)c3ccc(C(F)(F)F)cc3)c2n1 [ZDR143, di-trifluoroacetate]
Given back: 0.90

Asked: // query log10 of MIC value for entry O=C(CNCc1ccc2cccc(NS(=O)(=O)c3ccc(C(F)(F)F)cc3)c2n1)NCCN1CCCCC1 [ZDR269, di-trifluoroacetate]
Given back: 1.51

Asked: // query log10 of MIC value for entry O=C(CNCc1ccc2cccc(NS(=O)(=O)c3ccc(C(F)(F)F)cc3)c2n1)NO [ZDR267, trifluoroacetate]
Given back: 2.41

Asked: // query log10 of MIC value for entry CN1CCN(CCCNCc2ccc3cccc(NS(=O)(=O)c4ccc(C(F)(F)F)cc4)c3n2)CC1 [ZDR117, di-trifluoroacetate]
Given back: 1.81

Asked: // query log10 of MIC value for entry CN(C)CCCNC(=O)c1ccc2cccc(NS(=O)(=O)c3ccc(C(F)(F)F)cc3)c2n1 [ZDR224, trifluoroacetate]
Given back: 2.11

Asked: // query log10 of MIC value for entry O=S(=O)(Nc1cccc2ccc(CNCCCN3CCCCC3)nc12)c1ccc(C(F)(F)F)cc1 [ZDR115, di-trifluoroacetate]
Given back: 1.20
